tested on: CPG-tel26 (DNA, G4) TTAGGGTTAGGGTTAGGGTTAGGGTT; assay: G4-CPG affinity chromatography; settings: 50 mM KCl; 10% DMSO, 10% ethanol; 600 μM ligand
measured.property: binding

{"compound": "COc1cc2cc3c(c(O)c2c2c1C=CC(C)(C)O2)C(=O)CC(C)(O)C3 (stereo not shown)", "value.measured": "weak"}
{"compound": "CC1=C2C(=O)[C@H]3[C@@H](CC=C4C[C@@H](O)CC[C@@]43C)[C@@H]2CC[C@]12O[C@@H]1C[C@H](C)CN[C@H]1[C@H]2C", "value.measured": "yes"}
{"compound": "CC(C)=CCC1=C(O)c2c(cc3cc(C)cc(O)c3c2O)C(CC=C(C)C)(CC=C(C)C)C1=O", "value.measured": "weak"}
{"compound": "CC[C@H]1CN2CCc3cc(OC)c(OC)cc3[C@@H]2C[C@@H]1C[C@H]1NCCc2cc(OC)c(OC)cc21", "value.measured": "yes"}
{"compound": "CC(C)(O)CC[C@@H](O)[C@](C)(O)[C@H]1CC[C@@]2(O)C3=CC(=O)[C@@H]4C[C@@H](O)[C@@H](O)C[C@]4(C)[C@H]3CC[C@]12C", "value.measured": "weak"}
{"compound": "CN1CC[C@]23C(=O)C[C@H]4C(=CCO[C@H]5CC(=O)N(c6c(O)cccc62)[C@H]3[C@H]54)C1", "value.measured": "yes"}

Query (compound): CC(C)=CCc1c(C)cc2cc3c(c(O)c2c1O)C(=O)C=C(O)C3(CC=C(C)C)CC=C(CO)CO (stereo not shown) ; field requested: binding
weak
